Values were extracted from the supplement of paper PMC11061612.

test system: PANC-10-05 (Pancreatic Carcinoma); assay: Bliss excess, mean over the matrix (fraction); higher = more synergy;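 also: after 72 h of two-drug dosing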
I would appreciate it if you labelled entries met when Bliss excess is -0.03 or higher, otherwise not met.

compound	classAssignment
CC(=O)c1c(C)c2cnc(Nc3ccc(N4CCNCC4)cn3)nc2n(C2CCCC2)c1=O [Palbociclib] + CC1(C)CCC(CN2CCN(c3ccc(C(=O)NS(=O)(=O)c4ccc(NCC5CCOCC5)c([N+](=O)[O-])c4)c(Oc4cnc5[nH]ccc5c4)c3)CC2)=C(c2ccc(Cl)cc2)C1 [Venetoclax] (first compound max 10 µM, 7x7, partner max 1 µM)	not met
CN(CCO)CC[C@H](CSc1ccccc1)Nc1ccc(S(=O)(=O)NC(=O)c2ccc(N3CCC([C@@H](O)c4ccccc4-c4ccc(Cl)cc4)CC3)cc2)cc1S(=O)(=O)C(F)(F)F [AZD4320] + C=CCn1c(=O)c2cnc(Nc3ccc(N4CCN(C)CC4)cc3)nc2n1-c1cccc(C(C)(C)O)n1 [AZD1775] (first compound max 1 µM, partner max 1 µM)	met
Cc1cc2ncnn2cc1Nc1ncc2c(n1)n(C1CCOCC1)c(=O)n2C [AZD7648] + CCN(CCO)CCCOc1ccc2c(Nc3cc(CC(=O)Nc4cccc(F)c4)[nH]n3)ncnc2c1 [AZD2811] (first compound max 10 µM, 7x7, partner max 1 µM)	not met
Cc1c2c(nn1C)CSCc1cc(n(C)n1)CSc1cc(c3ccccc3c1)OCCCc1c(C(=O)O)n(C)c3c-2c(Cl)ccc13 [AZD5991] + CC(=O)O[C@H]1C(=O)[C@@]2(C)[C@H]([C@H](OC(=O)c3ccccc3)[C@]3(O)C[C@H](OC(=O)[C@H](O)[C@@H](NC(=O)c4ccccc4)c4ccccc4)C(C)=C1C3(C)C)[C@]1(OC(C)=O)CO[C@@H]1C[C@@H]2O [Paclitaxel] (first compound max 1 µM, 7x7, partner max 3 µM)	met

Given the entry COc1cccc(OCCCN)c1-c1cc(Nc2cnc(C#N)cn2)n[nH]1 [Prexasertib] + CCc1c2c(nc3ccc(O)cc13)-c1cc3c(c(=O)n1C2)COC(=O)[C@]3(O)CC [SN-38] (first compound max 1 µM, 7x7, partner max 0.3 µM) , answer whether its Bliss excess meets or surpasses -0.03.
not met
